- testProtocol: Antiproliferative activity against human HNT-34 assessed as reduction in cell viability incubated for 48 hrs by CellTiter-Glo cell vaibility assay
- Type: functional, cell-based
- experimentalParameters: HNT-34, 48 h
assayEndpoint: EC50 (nM)
Answer with a number only, understood to be in nM.

>  <recordSmiles>
CN(C)CC#Cc1ccc(OCCCc2sc(N3CCc4cccc(C(=O)Nc5nc6ccccc6s5)c4C3)nc2C(=O)O)c(F)c1

>  <assayEndpoint>
EC50

>  <measured>
680

$$$$
>  <recordSmiles>
CC1(C)CCC(CN2CCN(c3ccc(C(=O)NS(=O)(=O)c4ccc(NCC5CCOCC5)c([N+](=O)[O-])c4)c(Oc4cnc5[nH]ccc5c4)c3)CC2)=C(c2ccc(Cl)cc2)C1

>  <assayEndpoint>
EC50

>  <measured>
1700

$$$$

Now, please, on to the next compound.
Briefly, EC50 measured for CC1(C)CCC(c2ccc(Cl)cc2)=C(CN2CCN(c3ccc(C(=O)NS(=O)(=O)c4ccc(N[C@H](CCN5CCOCC5)CSc5ccccc5)c(S(=O)(=O)C(F)(F)F)c4)cc3)CC2)C1 : 30

---

Here the recorded pKi is given for each entry.
- tgt: Induced myeloid leukemia cell differentiation protein Mcl-1 (Homo sapiens)
- Sequence (Q07820 whole entry): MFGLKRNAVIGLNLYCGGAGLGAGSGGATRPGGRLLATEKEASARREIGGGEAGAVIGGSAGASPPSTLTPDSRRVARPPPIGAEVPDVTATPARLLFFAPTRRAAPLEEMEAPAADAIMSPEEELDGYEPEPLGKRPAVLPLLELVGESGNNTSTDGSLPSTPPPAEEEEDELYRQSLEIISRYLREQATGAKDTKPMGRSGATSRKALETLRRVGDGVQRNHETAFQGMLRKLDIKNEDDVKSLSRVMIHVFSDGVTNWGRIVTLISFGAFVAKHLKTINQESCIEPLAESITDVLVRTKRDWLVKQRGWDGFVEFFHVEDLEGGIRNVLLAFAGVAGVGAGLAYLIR
- testProtocol: Binding affinity to MCL-1 (unknown origin) assessed as dissociation constant incubated for 1 hrs by TR-FRET assay
pKi: −log10 of the molar value.

Examples with answers:
>  <recordSmiles>
CO[C@H]1CC[C@H](CNc2ccc(S(=O)(=O)NC(=O)c3ccc(N4CCN(CC5=C(c6ccc(Cl)cc6)CC(C)(C)CC5)CC4)cc3Oc3cnc4[nH]ccc4c3)cc2[N+](=O)[O-])CC1

>  <measured>
< 6.35

$$$$
>  <recordSmiles>
Cc1c(-c2ccc(N3CCc4cccc(C(=O)Nc5nc6ccccc6s5)c4C3)nc2C(=O)O)cnn1CC12CC3CC(CC(C3)C1)C2

>  <measured>
6.85

$$$$

Briefly, pKi measured for CN(C)CC#Cc1ccc(OCCCc2sc(N3CCc4cccc(C(=O)Nc5nc6ccccc6s5)c4C3)nc2C(=O)O)c(F)c1 : < 6.35

Briefly, pKi measured for CC1(C)CCC(CN2CCN(c3ccc(C(=O)NS(=O)(=O)c4ccc(N[C@H](CCN5CCOCC5)CSc5ccccc5)c(S(=O)(=O)C(F)(F)Cl)c4)cc3)CC2)=C(c2ccc(Cl)cc2)C1 : < 5.41

Briefly, pKi measured for CC1(C)CCC(CN2CCN(c3ccc(C(=O)NS(=O)(=O)c4ccc(NCC5CCOCC5)c([N+](=O)[O-])c4)c(Oc4cnc5[nH]ccc5c4)c3)CC2)=C(c2ccc(Cl)cc2)C1 : < 6.35

---

- testProtocol: Antiproliferative activity against human OCI-M1 assessed as reduction in cell viability incubated for 48 hrs by CellTiter-Glo cell vaibility assay
- Type: functional, cell-based
- experimentalParameters: OCI-M1, 48 h
assayEndpoint: pEC50
On this scale, pEC50 is minus log10 of a concentration expressed in M (mol/L).

>  <compound>
CN(C)CC#Cc1ccc(OCCCc2sc(N3CCc4cccc(C(=O)Nc5nc6ccccc6s5)c4C3)nc2C(=O)O)c(F)c1 [A-1155463]

>  <pEC50>
6.64

$$$$

Briefly, pEC50 measured for CC1(C)CCC(c2ccc(Cl)cc2)=C(CN2CCN(c3ccc(C(=O)NS(=O)(=O)c4ccc(N[C@H](CCN5CCOCC5)CSc5ccccc5)c(S(=O)(=O)C(F)(F)F)c4)cc3)CC2)C1 [NAVITOCLAX] : 6.39
